target: 5-hydroxytryptamine receptor 2C (Rattus norvegicus); assay: Intrinsic 5-HT 2c receptor activity as induced IP3 turnover in vitro in rat choroid plexus; type: functional, tissue-based
Give measured Efficacy for each item. Keep answers brief.
Response field accepts a number only; no unit should be typed.

### Prompt Fill blank: measured Efficacy of the molecule CC(N)Cc1c[nH]c2ccc(F)cc12 (centres undefined) is ____.
### Response 0.9

### Prompt Need Efficacy, item CC(N)Cn1ccc2cc(Br)ccc21 (centres undefined)
### Response 0.8

### Prompt Find the recorded Efficacy belonging to Cc1ccc2c(c1)-c1c(ccn1CC(C)N)C2 (centres undefined) and report it.
### Response 1

### Prompt For the molecule Cc1ccc2c(c1)-c1c(ccn1CC(C)N)C2(C)C (centres undefined) , what Efficacy is on record?
### Response 1
